# Test system: NCI-H522
# experiment.summary: NCI tumour cell line growth inhibition, 48 h
Active and inactive are the calls of the source. Rule as the data show it: active = GI50 up to about 1.1 µM and inactive = higher.
The reader will find reported GI50 values listed item by item below.
quantity.name: GI50

| molecule | quantity.name | reading |
| --- | --- | --- |
| C/C(=C1/N=C(c2cc([N+](=O)[O-])ccc2Cl)N(c2cccc(C)c2)C1=O)c1cc2ccccc2oc1=O | GI50 | 13.6 µM (inactive) |
| CCOC(=O)/C(=C/c1ccco1)P(=O)(OCC)OCC | GI50 | > 100 µM (inactive) |
| OC1c2ccccc2C2(O)C1C(c1ccccc1)C(c1ccccc1)C2(O)c1ccccc1 (stereo not given) | GI50 | 6.34 µM (inactive) |
| O=C1NC(=O)C(c2c[nH]c3cc(Br)ccc23)=C1c1cn(C(c2ccccc2)(c2ccccc2)c2ccccc2)cn1 | GI50 | 13.3 µM (inactive) |
| NC(CCCCCP(=O)(c1ccccc1)C1C=CC=CC1)C(=O)O (stereo not given) | GI50 | > 100 µM (inactive) |

====

# Test system: ACHN
# experiment.summary: NCI tumour cell line growth inhibition, 48 h
Active and inactive are the calls of the source. No stated cut-off is given here; in the data, active = GI50 up to about 1.1 µM and inactive = higher.
Outcome codes: active, inactive

| compound | category.label |
| --- | --- |
| COc1ccc(-c2c(C(C)=O)c(C)n(C3OC(CO)C(O)C(O)C3O)c(=S)c2C#N)cc1 (stereo not drawn) | inactive |
| CCOC(=O)N1CCN(C=S)CC1 | inactive |
| CN1C(=O)C(O)CC1c1ccccc1F (stereo not drawn) | inactive |
| C(=N\c1ccc(-c2nc3ccccc3[nH]2)cc1)/c1ccc[nH]1 | inactive |
| Cc1ccc(C(=O)OCC(C)C)cc1/N=N/N(C)C | inactive |
| N/C(=N\c1ccc(Cl)cc1)NS(=O)(=O)c1ccc(-c2ccccn2)s1 | inactive |
| C[N+](C)(C)CC1CCC/C1=N\OC(=O)c1ccccc1 (stereo not drawn) | inactive |
| CC(=O)/C(=C\NC(=S)Nc1ccc(S(N)(=O)=O)cc1)C(=O)Nc1ccccc1C | inactive |
| CCc1nc(N)c2nc(-c3ccc(C#N)cc3)oc2n1 | inactive |
| O=C(/C=C/c1ccccc1Cl)c1ccc(Cl)cc1Cl | inactive |
| O=C1C(c2ccccc2)=C(c2ccccc2)C1(Cl)Cl | inactive |
| COc1ccc2c(c1)CCc1c-2[nH]c2ccc(OC)cc12 | inactive |
| Cc1ccccc1OC(C)C(=O)NN1C(=O)CSC1c1ccc(Cl)cc1 (stereo not drawn) | inactive |
| Cc1c2c(c(C)c3c1[nH]c1ccccc13)CN(C)CC2 | inactive |
| O=C(O)CSC1=NCCN1 | inactive |
| CC1=C2C(=O)O[C@@H](c3ccoc3)[C@]2(C)CCC1 | inactive |
| CC(C)Oc1c(O)c2c3c(oc(=O)n3C=CC2c2ccccc2F)c1OC(C)C (stereo not drawn) | inactive |
| Cc1cn(Cc2ccccc2CCO)c(=S)[nH]c1=O | inactive |
| CN(C)/C=C/c1nnnn1-c1ccc(I)cc1 | inactive |
| CC1=NN(C(=O)c2ccccc2O)C(=O)/C1=C/c1ccc([N+](=O)[O-])cc1 | active |
| C[N+](C)(C)CC(=O)N/N=C(/Cc1nc2c3c(ccc2nc1O)C(=O)c1ccccc1C3=O)C(=O)Nc1ccc(Cl)c(Cl)c1 | inactive |
| CCOC(=O)Cc1cc(=O)oc2cc(O)ccc12 | inactive |
| N=S(c1ccccc1[N+](=O)[O-])c1ccccc1[N+](=O)[O-] | inactive |
